experiment: AUC (0 to infinity) in Sprague-Dawley rat plasma at 4.5 mg/kg, iv by LCMS analysis; assay type: ADME, organism-based; set-up: time infinity, dose 4.5 mg/kg, route intravenous
measured_property: AUC(0-inf) (µM·h)
# output: bare number, implied unit µM·h

[Q] What AUC(0-inf) value was documented for this compound, "CC(C)(C)c1cc(C(=O)Nc2nc(CN)cs2)n(Cc2ccccc2)n1" ?
[A] 4.82

----------
tested on: Liver microsomes; assay: Metabolic stability in human liver microsomes at 1 uM by LC-MS analysis; format: ADME, Microsome
measured_property: Stability

input_smiles	result
Cc1csc(NC(=O)c2cc(C(C)(C)C)nn2Cc2ccccc2)n1	Unstable
CC(C)(C)c1cc(C(=O)Nc2cccnc2)n(Cc2ccccc2)n1	Unstable
CC(=O)NCc1csc(NC(=O)c2cc(C(C)(C)C)nn2Cc2ccccc2)n1	Unstable
CC(C)(C)c1cc(C(=O)Nc2nc(CO)cs2)n(Cc2ccccc2)n1	Unstable
CC(C)(C)c1cc(C(=O)Nc2ccccc2)n(Cc2ccccc2)n1	Unstable

[Q] Quick one: Stability for "CC(C)(C)c1cc(C(=O)Nc2nc(CN)cs2)n(Cc2ccccc2)n1" ?
[A] Stable

[Q] Request the reported Stability associated with "CNCc1csc(NC(=O)c2cc(C(C)(C)C)nn2Cc2ccccc2)n1"
[A] Stable

----------
test: Plasma protein binding in mouse at 200 ng/mL; format: ADME, cell-free; conditions: read-out: PPB (converted)
measured_property: fraction unbound at 200 ng/mL
// return a plain number; no unit text

[Q] What does the record list as fraction unbound at 200 ng/mL for "CC(C)(C)c1cc(C(=O)Nc2nc(CN)cs2)n(Cc2ccccc2)n1" ?
[A] 0.021

----------
assay: Total clearance in Sprague-Dawley rat plasma at 4.5 mg/kg, iv; assay type: ADME, organism-based; parameters: dose 4.5 mg/kg, route intravenous
measured_property: clearance (mL/min/kg)
The reply should contain only the number, in mL/min/kg.

[Q] Record request: clearance value, item "CC(C)(C)c1cc(C(=O)Nc2nc(CN)cs2)n(Cc2ccccc2)n1"
[A] 42.6

----------
assay: Total clearance in Sprague-Dawley rat blood at 4.5 mg/kg, iv; format: ADME, organism-based; design: dose 4.5 mg/kg, route intravenous; settings: whole blood
measured_property: clearance
Enter the number, and then the unit.

[Q] If you can, please state the reported clearance value of "CC(C)(C)c1cc(C(=O)Nc2nc(CN)cs2)n(Cc2ccccc2)n1" .
[A] 39.1 mL/min/kg

----------
test system: Liver microsomes; assay: Metabolic stability in rat liver microsomes at 1 uM by LC-MS analysis; type: ADME, Microsome
measured_property: Stability

Past entries and their recorded results:
input_smiles	measured_property	result
CC(C)(C)c1cc(C(=O)Nc2ccccc2)n(Cc2ccccc2)n1	Stability	Unstable
CC(C)(C)c1cc(C(=O)Nc2nc(CN)cs2)n(Cc2ccccc2)n1	Stability	Stable
CC(=O)NCc1csc(NC(=O)c2cc(C(C)(C)C)nn2Cc2ccccc2)n1	Stability	Unstable
CC(C)(C)c1cc(C(=O)Nc2ccncc2)n(Cc2ccccc2)n1	Stability	Unstable
CC(C)(C)c1cc(C(=O)Nc2nc(CO)cs2)n(Cc2ccccc2)n1	Stability	Unstable

[Q] Please give the measured Stability for this compound: "CC(C)(C)c1cc(C(=O)Nc2ccccn2)n(Cc2ccccc2)n1"
[A] Unstable

[Q] Stability for "CNCc1csc(NC(=O)c2cc(C(C)(C)C)nn2Cc2ccccc2)n1" ?
[A] Stable
